# SYSTEM NAME: human NAMPT (Homo sapiens (Human))
# Sequence (P43490 whole entry): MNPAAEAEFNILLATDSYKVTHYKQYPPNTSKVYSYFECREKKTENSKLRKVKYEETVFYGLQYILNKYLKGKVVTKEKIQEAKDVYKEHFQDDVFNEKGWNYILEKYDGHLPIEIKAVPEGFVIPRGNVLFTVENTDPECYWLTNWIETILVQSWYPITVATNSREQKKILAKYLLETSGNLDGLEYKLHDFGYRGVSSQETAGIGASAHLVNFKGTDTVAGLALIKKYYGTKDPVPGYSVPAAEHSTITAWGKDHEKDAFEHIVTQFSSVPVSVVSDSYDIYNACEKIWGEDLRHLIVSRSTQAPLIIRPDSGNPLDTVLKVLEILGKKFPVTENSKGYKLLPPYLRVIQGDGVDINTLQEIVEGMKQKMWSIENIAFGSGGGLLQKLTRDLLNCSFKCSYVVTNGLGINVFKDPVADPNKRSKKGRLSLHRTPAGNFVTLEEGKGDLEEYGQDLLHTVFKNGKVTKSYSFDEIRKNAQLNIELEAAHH
# METHOD NOTES: NMN fluorescence biochemical assay (human recombinant NAMPT enzyme assay)
pEC50: −log10 of the molar value.
RESULT TYPE: pEC50

## Task Recorded pEC50 for CNS(=O)(=O)N1CCC(Cc2ccc(NC(=O)OCc3cnco3)cc2)CC1 [Compound 10] , please?
## Result 4.95

[P] CS(=O)(=O)N1CCC2(CC(c3ccc(NC(=O)OCc4cnco4)cc3F)C2)C1 (single isomer, unassigned) [Compound 359]
[Q] O=C(Nc1ccc(COC2CN(C3COC3)C2)cc1)OCc1ccc(Cl)cc1 [Compound 354]
## Task Looking only at measured pEC50, which entry is lower, P or Q ? Choose, then provide that item's label.
## Result Q

[A] CN1CC(=O)NC[C@@H]1c1ccc(NC(=O)OCc2ccc(Cl)cc2F)cc1 [Compound 81]
[B] O=C(Nc1ccc(C2CCN(C3COC3)CC2)cc1)OCc1ccc(Cl)cc1 [Compound 198]
## Task Could you determine which record has the numerically smaller pEC50? Candidates: A and B // respond with label for picked entry
## Result B
(B: 5.07, A: 5.47)

[a] Cc1ccc(C(=O)NCc2ccc(NC(=O)OCc3ccncc3)cc2)cn1 [Compound 37]
[b] O=C(Nc1ccc(CC2CCN(CC3CCO3)CC2)cc1)OCc1cnco1 (centres unmarked) [Compound 471]
## Task Could you please tell me which of these two has the higher pEC50: a or b ? Reply with the label of the item you choose.
## Result a
(a: 5.44, b: 4.82)
